# tgt: T1, human ROR1-Fz (Homo sapiens, UniProt Q01973)
# T1 construct: Frizzled (Fz, residues 165-305); HIS6 (C); purchased Acro Biosystems; host or cells: HEK293
# protocol: Biacore off-rate and kinetic analysis, ROR1 frizzled domain
# Format: binding
# condition: Table 11 (SP34 light chain)
readout.kind: Biacore human ROR1-Fz kd (s⁻¹)
Give your result in s⁻¹ as a bare value.

Consider the following illustrative entries.
>  <molecule>
SRP2196-B04 (antibody, V domains shown) VH: EVQLVESGGGLVQPGGSLRLSCAASGFNITEYYIHWVRQAPGKGLEWVGYISPNSGATYQADSVKGRFTISADTSKNTAYLQMNSLRAEDTAVYYCARDSRRYVRGWDYWGQGTLVTVSS VL: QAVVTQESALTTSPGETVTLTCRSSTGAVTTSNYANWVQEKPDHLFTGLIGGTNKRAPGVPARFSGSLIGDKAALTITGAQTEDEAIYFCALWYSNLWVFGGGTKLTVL

>  <Biacore human ROR1-Fz kd [s⁻¹]>
0.000352

$$$$
>  <molecule>
SRP2196-A06 (antibody, V domains shown) VH: EVQLVESGGGLVQPGGSLRLSCAASGFNITGYYIHWVRQAPGKGLEWVGQISPNSGSTHQADSVKGRFTISADTSKNTAYLQMNSLRAGDTAVYYCARDSRRYVRGWDYWGQGTLVTVSS VL: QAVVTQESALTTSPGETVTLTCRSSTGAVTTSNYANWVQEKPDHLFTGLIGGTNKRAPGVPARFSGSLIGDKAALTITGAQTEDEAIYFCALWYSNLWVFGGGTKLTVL

>  <Biacore human ROR1-Fz kd [s⁻¹]>
0.00069

$$$$

// Biacore human ROR1-Fz kd lookup, key: SRP2196-A03 (antibody, V domains shown) VH: EVQLVESGGGLVQPGGSLRLSCAASGFNITQYHIHWVRQAPGKGLEWVGYISPNSGSTHEADSVKGRFTISADTSKNTAYLQMNSLRAEDTAVYYCARDSRRYVRGWDYWGQGTLVTVSS VL: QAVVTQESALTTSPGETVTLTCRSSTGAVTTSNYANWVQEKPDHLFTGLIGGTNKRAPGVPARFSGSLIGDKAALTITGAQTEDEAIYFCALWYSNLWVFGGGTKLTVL
0.000275

// Biacore human ROR1-Fz kd lookup, key: SRP2196-A08 (antibody, V domains shown) VH: EVQLVESGGGLVQPGGSLRLSCAASGFNITGYYIHWVRQAPGKGLEWVGYISPNSGSTYKADSVKGRFTISADTSRNTAYLQMNSLRAEDTAVYYCARDSRRYVRSWDYWGQGTLVTVSS VL: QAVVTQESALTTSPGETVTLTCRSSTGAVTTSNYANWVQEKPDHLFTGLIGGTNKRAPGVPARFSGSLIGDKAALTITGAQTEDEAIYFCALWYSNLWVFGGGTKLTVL
0.00078

// Biacore human ROR1-Fz kd lookup, key: SRP2196-A11 (antibody, V domains shown) VH: EVQLVESGGGLVQPGGSLRLSCAASGFNITGYYIHWVRQAPGKGLEWVGQISPNSGTTYDADSVKGRFTISADTSKNTAYLQMNSLRAEDTAVYYCARDSRRYVRGWDYWGQGTLVTVSS VL: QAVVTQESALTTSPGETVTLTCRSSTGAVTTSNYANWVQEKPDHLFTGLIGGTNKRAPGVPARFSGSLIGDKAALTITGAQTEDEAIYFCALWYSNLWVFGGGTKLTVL
0.000792

// Biacore human ROR1-Fz kd lookup, key: SRP2196-C04 (antibody, V domains shown) VH: EVQLVESGGGLVQPGGSLRLSCAASGFNITGYYIHWVRQAPGKGLEWVGFIAPLSGSTHNADSVKGRFTISADTSKNTAYLQMNSLRAEDTAVYYCARESRRYVNPWDYWGQGTLVTVSS VL: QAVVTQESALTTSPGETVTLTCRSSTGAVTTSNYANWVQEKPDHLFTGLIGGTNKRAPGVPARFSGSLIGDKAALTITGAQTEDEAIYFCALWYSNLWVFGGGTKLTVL
0.000704

// Biacore human ROR1-Fz kd lookup, key: SRP2196-A05 (antibody, V domains shown) VH: EVQLVESGGGLVQPGGSLRLSCAASGFNITNYYIHWVRQAPGKGLEWVGYISPNSGATYQADSVKGRFTISADTSKNTAYLQMNSLRAEDTAVYYCARDSRRYVRSWDYWGQGTLVTVSS VL: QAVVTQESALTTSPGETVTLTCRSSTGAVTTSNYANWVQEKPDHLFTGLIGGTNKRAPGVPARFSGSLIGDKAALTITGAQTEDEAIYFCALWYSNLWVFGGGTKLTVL
0.000682

// Biacore human ROR1-Fz kd lookup, key: SRP2196-C02 (antibody, V domains shown) VH: EVQLVESGGGLVQPGGSLRLSCAASGFNITGYHIHWVRQAPGKGLEWVGFISPNSGWTYSADSVKGRFTISADTSKNTAYLQMNSLRAEDTAVYYCARDSRRYVRPFDYWGQGTLVTVSS VL: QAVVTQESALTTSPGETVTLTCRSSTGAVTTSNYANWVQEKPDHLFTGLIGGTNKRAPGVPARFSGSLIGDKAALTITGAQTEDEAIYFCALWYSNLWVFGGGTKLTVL
0.00036

// Biacore human ROR1-Fz kd lookup, key: SRP2196-A09 (antibody, V domains shown) VH: EVQLVESGGGLVQPGGSLRLSCAASGFNITGYYIHWVRQAPGKGLEWVGQISPNSGATHYADSVKGRFTISADTSKNTAYLQMNSLRAEDTAVYYCARDSRRYIRSWDYWGQGTLVTVSS VL: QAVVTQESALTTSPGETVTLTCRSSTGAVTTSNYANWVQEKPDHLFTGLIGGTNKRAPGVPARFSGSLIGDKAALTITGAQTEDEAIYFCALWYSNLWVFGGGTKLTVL
0.000568

// Biacore human ROR1-Fz kd lookup, key: SRP2196-B09 (antibody, V domains shown) VH: EVQLVESGGGLVQPEGSLRLSCAASGFNITEYYIHWVRQAPGKGLEWVGYISPNSGSTYYADSVKGRFTISADTSKNTAYLQMNSLRAEDTAVYYCARDSRRYVRSWDYWGQGTLVTVSS VL: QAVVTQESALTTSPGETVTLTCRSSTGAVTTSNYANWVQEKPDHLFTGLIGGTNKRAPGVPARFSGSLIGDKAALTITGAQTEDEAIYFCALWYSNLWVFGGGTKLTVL
0.000427
